target: T1, Anti-PSMA Fab (SEQ ID NOs: 19, 20); assay: phage binding ELISA; biotinylated anti-PSMA Fab on neutravidin plate, PSMA antigen as competitor, anti-M13 HRP detection
T1 construct: Biotinylated and captured on neutravidin coated plates in the phage ELISA; also called 006 PSMA Fab
Kind request: treat 0.1 as inclusive, so Anti-PSMA Fab signal in the presence of PSMA at 0.1 or higher is true (1), anything lower is false (0).

# binder, assigned.category
records = [
    ("MNTWCKPAWMCEGL [Phage-2113]", "true (1)"),
    ("WENWCTPSWMCSVL [Phage-2116]", "true (1)"),
    ("QEKWCIPMWMCESL [Phage-2106]", "false (0)"),
    ("VVKWCSPPWMCDFL [Phage-2111]", "false (0)"),
]

Input: Would you say FEKWCIPPWMCAVH [Phage-2110] shows Anti-PSMA Fab signal in the presence of PSMA at minimum 0.1?
Output: true (1)

Input: Would you say SAMLCKPQWMCDGF [Phage-2108] shows Anti-PSMA Fab signal in the presence of PSMA at minimum 0.1?
Output: false (0)

Input: Would you say MERWCIPEWMCATT [Phage-2102] shows Anti-PSMA Fab signal in the presence of PSMA at minimum 0.1?
Output: false (0)

Input: Would you say GVNWCIPDWMCVGM [Phage-2104] shows Anti-PSMA Fab signal in the presence of PSMA at minimum 0.1?
Output: false (0)

# credit: patent US20260242478A1
